Data provenance: PubChem BioAssay AID1918937

Listed next: entries and their corresponding viability, T/C.
- Tested on: 521955-158-R2-J5-PDC complex spheroid viability;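 note: spheroids exposed to agents for seven days; percent of DMSO vehicle control luminescence viability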
- EXPERIMENT NOTES: Anticancer human tumor 521955-158-R2-J5-PDC patient-derived pancreatic carcinoma cell line growth inhibition
- APPLIED CONDITIONS: second compound 10 µM; first compound 1 µM; active compounds read low
Unit % implied. Number only.

// below: answered compounds
{"columns": ["COMPOUND", "TARGET", "viability, T/C / %"],
 "data": [
  ["COc1cc(Nc2ncc3c(n2)-c2ccc(Cl)cc2C(c2c(F)cccc2OC)=NC3)ccc1C(=O)O + NC1CC1c1ccc(-c2cccc(O)c2)cc1", "521955-158-R2-J5-PDC complex spheroid viability", 71.6],
  ["Nc1ncn(C2CC(O)C(CO)O2)c(=O)n1 (centres undefined) + NC1CC1c1ccc(-c2cccc(O)c2)cc1", "521955-158-R2-J5-PDC complex spheroid viability", 67.4]
]}

Data request: Need viability, T/C, item CC1(C)CCC(CN2CCN(c3ccc(C(=O)NS(=O)(=O)c4ccc(NCC5CCOCC5)c([N+](=O)[O-])c4)c(Oc4cnc5[nH]ccc5c4)c3)CC2)=C(c2ccc(Cl)cc2)C1 + NC1CCC(NC2CC2c2ccccc2)CC1
Data returned: 115

Data request: Param item = O=C(c1cc(Cc2n[nH]c(=O)c3ccccc23)ccc1F)N1CCN(C(=O)C2CC2)CC1 + NC1CCC(NC2CC2c2ccccc2)CC1 ; retrieve measured viability, T/C.
Data returned: 95.3
